molecular target: Cytochrome P450 2D6 (Homo sapiens) (UniProt P10635); test: Cytochrome P450 family 2 subfamily D member 6 (CYP2D6) small molecule antagonists: luciferase biochemical (cell-free) qHTS assay (AID 1645840); details: P450-Glo CYP2D6 enzyme, luciferin luminescence, 1 h; series mostly up to 57.4 µM; note: nearly all actives have a fitted effect of over 55% in size; note: potency is the fitted concentration of half-maximal effect
Sequence (P10635 whole entry, looked up): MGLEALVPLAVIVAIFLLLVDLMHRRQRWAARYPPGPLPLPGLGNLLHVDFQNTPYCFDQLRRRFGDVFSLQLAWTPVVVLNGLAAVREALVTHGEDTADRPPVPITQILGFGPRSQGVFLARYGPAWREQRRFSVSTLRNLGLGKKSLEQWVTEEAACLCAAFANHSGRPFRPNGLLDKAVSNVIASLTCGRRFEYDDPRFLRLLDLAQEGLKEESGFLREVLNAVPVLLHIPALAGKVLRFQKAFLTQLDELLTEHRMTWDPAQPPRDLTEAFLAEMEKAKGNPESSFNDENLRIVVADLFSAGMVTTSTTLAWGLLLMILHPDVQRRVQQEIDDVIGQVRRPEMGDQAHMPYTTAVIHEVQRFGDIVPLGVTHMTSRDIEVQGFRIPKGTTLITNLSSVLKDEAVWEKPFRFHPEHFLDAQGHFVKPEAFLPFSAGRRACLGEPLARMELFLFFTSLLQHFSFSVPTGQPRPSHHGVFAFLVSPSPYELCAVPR
Results filed as inconclusive are left out. Calls of active or inactive are those of the source. Calls come from the whole dose curve; as a rule, active = well fitted inhibition curve with a large enough effect in the repeat runs; inconclusive = weak or mixed curves; inactive = flat fitted curve, though single readings scatter. Where a SMILES comes first, the peptide text is derived from it.
experimental.readout: Potency

Reference set, count: 10
Problem: Please look at this compound and report its Potency: O=C(O)c1ccccc1Nc1cc(Cl)ccc1C(=O)O
Solution: inactive

Problem: Please look at this compound and report its Potency: O=C(O)c1ccc(OCCN2CCCCC2)cc1
Solution: inactive

Problem: Please look at this compound and report its Potency: CC(C)C[C@H](NC(=O)CNC(=O)[C@H](Cc1ccc(O)cc1)NC(=O)[C@H](CO)NC(=O)[C@H](Cc1c[nH]c2ccccc12)NC(=O)[C@H](Cc1cnc[nH]1)NC(=O)[C@@H]1CCC(=O)N1)C(=O)N[C@@H](CCCN=C(N)N)C(=O)N1CCC[C@H]1C(=O)NCC(N)=O (stereo in doubt)
Solution: inactive

Problem: Please look at this compound and report its Potency: Cc1ccc(Cl)c(OCC(O)CNC(C)(C)C)c1 (stereo not given)
Solution: 1740 nM (active)

Problem: Please look at this compound and report its Potency: Cc1nc(N)nc(N)c1-c1ccc(Cl)c(Cl)c1
Solution: 871 nM (active)

Problem: Please look at this compound and report its Potency: O=c1[nH]c2ccccc2c(=O)n1CCCl
Solution: inactive

Problem: Please look at this compound and report its Potency: CC(C)(Oc1ccc(Cl)cc1)C(=O)OCCCOC(=O)C(C)(C)Oc1ccc(Cl)cc1
Solution: inactive

Problem: Please look at this compound and report its Potency: Oc1cccc2[nH]ccc12
Solution: 15500 nM (active)

Problem: Please look at this compound and report its Potency: CC(=O)N[C@@H](CO)C(=O)N[C@@H](CC(=O)O)C(=O)N[C@@H](CCCCN)C(=O)N1CCC[C@H]1C(=O)O (Ac-SDKP-OH)
Solution: inactive

Problem: Please look at this compound and report its Potency: CC1CC(=O)NN=C1c1ccc(NCC(C)(C)NCC(O)COc2cc(Cl)ccc2C#N)cc1 (stereo not given)
Solution: 871 nM (active)

***
Problem: Please look at this compound and report its Potency: Cc1oc(=O)oc1COC(=O)[C@@H]1N2C(=O)[C@@H](NC(=O)[C@H](N)c3ccccc3)[C@H]2SC1(C)C
Solution: inactive

Problem: Please look at this compound and report its Potency: CC(=O)c1cc2ccccc2s1
Solution: inactive

Problem: Please look at this compound and report its Potency: CO/N=C(/C(=O)N[C@@H]1C(=O)N2C(C(=O)OCOC(=O)C(C)(C)C)=C(C)CS[C@H]12)c1csc(N)n1
Solution: inactive

Problem: Please look at this compound and report its Potency: O=C1[C@@H]2[C@H]3CC[C@H](C3)[C@@H]2C(=O)N1CCCCN1CCN(c2ncccn2)CC1
Solution: 15500 nM (active)

Problem: Please look at this compound and report its Potency: Nc1nc(=O)n([C@@H]2O[C@H](CO)[C@@H](O)[C@@H]2F)cc1I
Solution: inactive

* * *

assay: qHTS of pediatric cancer cell lines to identify multiple opportunities for drug repurposing: Primary screen for SK-N-SH cells (AID 1347098); conditions: SK-N-SH viability, CellTiter-Glo luminescence, 48 h; series mostly up to 57 µM; note: nearly all actives have a fitted effect of over 65% in size; note: potency is the fitted concentration of half-maximal effect
Records with an inconclusive call do not appear. Calls of active or inactive are those of the source. Calls come from the whole dose curve; as a rule, active = well fitted cell-killing curve with a large enough effect; inconclusive = small, poorly fitted or top-dose-only effect; inactive = no such curve, though single readings can be large or run the other way.
experimental.readout: Potency

Problem: Please look at this compound and report its Potency: Cc1ccc(C(=O)C(=O)O)cc1C
Solution: inactive

Problem: Please look at this compound and report its Potency: CO[C@@H]1[C@@H](OC)[C@H](C)[C@@](O)(CC(=O)O)O[C@H]1[C@H](C)[C@H]1O[C@@]2(CC[C@@](C)([C@H]3CC[C@@](C)([C@@H]4O[C@@H]([C@H]5O[C@](C)(O)[C@H](C)C[C@@H]5C)C[C@@H]4OC4C[C@H](OC)[C@@H](OC)[C@H](C)O4)O3)O2)C[C@H](O)[C@H]1C (stereo partly specified)
Solution: 2.44 µM (active)

Problem: Please look at this compound and report its Potency: Nc1c(NC/C=C\COc2cc(CN3CCCCC3)ccn2)c(=O)c1=O
Solution: inactive

Problem: Please look at this compound and report its Potency: CCN1CCN(c2cc(-c3ccc(F)cc3)c3c(n2)CCCCCC3)CC1
Solution: inactive

Problem: Please look at this compound and report its Potency: CC(COc1ccccc1)NN (stereo unspecified)
Solution: inactive

Problem: Please look at this compound and report its Potency: Nc1ncnc2c1ncn2Cc1c(F)cccc1Cl
Solution: inactive

Problem: Please look at this compound and report its Potency: O=C(O)[C@@H](O)[C@H](O)[C@H](O)[C@@H](O)C(=O)O
Solution: inactive

Problem: Please look at this compound and report its Potency: CCn1ccc(NS(=O)(=O)c2ccc(N)cc2)nc1=O
Solution: inactive

***
Problem: Please look at this compound and report its Potency: C#CC(C)(CC)OC(=O)c1ccccc1C(=O)O (stereo unspecified)
Solution: inactive

Problem: Please look at this compound and report its Potency: CCC(C(=O)NC(=O)NC(C)=O)c1ccccc1 (stereo unspecified)
Solution: inactive

Problem: Please look at this compound and report its Potency: CN(C)CCOC(c1ccccc1)c1ccc(Br)cc1 (stereo unspecified)
Solution: 15.4 µM (active)

* * *

test system: CRL-7250; assay: Cytotoxic Profiling of Annotated Libraries Using Quantitative High-Throughput Screening (AID 1296008); conditions: Five cell lines viability, CellTiter-Glo ATP luminescence, 48-72 h; note: nearly all actives have a fitted effect of over 60% in size
Results filed as inconclusive are left out. Calls of active or inactive are those of the source. Calls follow the shape of the dose curve; as a rule, active = well fitted inhibition curve with a large enough effect; inconclusive = small, poorly fitted or top-dose-only effect; inactive = flat fitted curve, though single readings scatter.
Could you please pick one outcome from this set? T (active), F (inactive)

Problem: Answer briefly: the call reported for CCOC(=O)C(=O)CCCCCCl in this assay.
Solution: F

* * *

As shown below, each of these compounds has a reported max response value.
system: NIH3T3; experiment: Cytotoxic Profiling of Annotated Libraries Using Quantitative High-Throughput Screening (AID 1296008); conditions: Five cell lines viability, CellTiter-Glo ATP luminescence, 48-72 h; stronger effect = lower value; note: nearly all actives have a fitted effect of over 60% in size; for max response: % is set by controls: 0 for no effect and ±100 for the full control effect
Records with an inconclusive call do not appear. Active and inactive are the calls of the source. Calls come from the whole dose curve; as a rule, active = well fitted inhibition curve with a large enough effect; inconclusive = small, poorly fitted or top-dose-only effect; inactive = flat fitted curve, though single readings scatter.

Reference set, count: 3
Problem: Please look at this compound and report its max response: Cc1sccc1Br
Solution: -2.8% (inactive)

Problem: Please look at this compound and report its max response: O=C(O)[C@@H](O)[C@H](O)[C@H](O)[C@@H](O)C(=O)O
Solution: -2.02% (inactive)

Problem: Please look at this compound and report its max response: Cc1c(F)cc2c(=O)c(C(=O)O)cn3c2c1CCC3C (stereo not drawn)
Solution: -8.9% (inactive)

***
Problem: Please look at this compound and report its max response: CN1C(=O)c2ccccc2C1=O
Solution: -7.13% (inactive)

* * *

assay: qHTS of pediatric cancer cell lines to identify multiple opportunities for drug repurposing: Primary screen for A673 cells (AID 1347092); details: A673 Ewing sarcoma viability, CellTiter-Glo ATP luminescence, 48 h; series mostly up to 46 µM; note: nearly all actives have a fitted effect of over 45% in size
Results filed as inconclusive are left out. The source made the active and inactive calls. The call rests on the fitted dose curve; in most records, active means well fitted cell-killing curve with a large enough effect; inconclusive means small, poorly fitted or top-dose-only effect; inactive means no such curve, though single readings can be large or run the other way.
Could you please pick one outcome from this set? active, inactive

Problem: Answer briefly: the call reported for Cc1cc(O)c2c(O)c3c(O)cccc3cc2c1 in this assay.
Solution: inactive

Problem: Answer briefly: the call reported for C[C@H]1C[C@@H]2[C@H]([C@@H](O)C[C@@]3(C)[C@H]2CC[C@]3(O)C(=O)CO)[C@@]2(C)C=CC(=O)C=C12 in this assay.
Solution: inactive

Problem: Answer briefly: the call reported for O=C(COCCOCCOCC(=O)Nc1c(I)cc(I)c(C(=O)O)c1I)Nc1c(I)cc(I)c(C(=O)O)c1I in this assay.
Solution: inactive

Problem: Answer briefly: the call reported for Cc1ccc(-c2ccccc2C#N)cc1 in this assay.
Solution: inactive

Problem: Answer briefly: the call reported for CC1(C)OC(=O)Nc2ccc(Br)cc21 in this assay.
Solution: inactive

Problem: Answer briefly: the call reported for CC(=O)OCC[N+](C)(C)C in this assay.
Solution: inactive

Problem: Answer briefly: the call reported for CCOC(=O)OCC/C(SC(=O)OCC)=C(\C)N(C=O)Cc1cnc(C)nc1N in this assay.
Solution: inactive

Problem: Answer briefly: the call reported for O=[N+]([O-])c1cncn1CCN1CCOCC1 in this assay.
Solution: inactive

Problem: Answer briefly: the call reported for Cc1ccccc1C(=O)N1CC/C(=N\OS(=O)(=O)O)c2ccc(Cl)cc21 in this assay.
Solution: inactive

Problem: Answer briefly: the call reported for Cc1ccc2ccc(Cl)cc2n1 in this assay.
Solution: inactive

***
Problem: Answer briefly: the call reported for O=C1CC2(CCCC2)CC(=O)N1CCNCC1COc2ccccc2O1 (stereo not drawn) in this assay.
Solution: inactive

Problem: Answer briefly: the call reported for O=C(O)C1CCC1 in this assay.
Solution: inactive

Problem: Answer briefly: the call reported for CCCCCCCCCCCC[N+](C)(C)Cc1ccccc1 in this assay.
Solution: active

Problem: Answer briefly: the call reported for CCCCC(CC)CNC(=O)CC(C)OC(=O)CCC(=O)O (stereo not drawn) in this assay.
Solution: inactive

Problem: Answer briefly: the call reported for Cc1c(N)cccc1C(F)(F)F in this assay.
Solution: inactive

Problem: Answer briefly: the call reported for CC(C)=CCC/C(C)=C/CC/C(C)=C/C(=O)OCC(=O)[C@@]1(O)CC[C@H]2[C@@H]3CCC4=CC(=O)C=C[C@]4(C)[C@H]3[C@@H](O)C[C@@]21C in this assay.
Solution: inactive

Problem: Answer briefly: the call reported for CCN(CC)CC(=O)OCC(=O)[C@@]1(O)CC[C@H]2[C@@H]3CCC4=CC(=O)CC[C@]4(C)[C@H]3[C@@H](O)C[C@@]21C in this assay.
Solution: inactive
